- assay_summary: in vivo
- experimental_context: ICR, mouse, po, Tmax, plasma
measured_parameter: Tmax (min)
Expressed in min, but write only the number.

Please supply the value of reported Tmax for the item O=C(Nc1ncc([N+](=O)[O-])s1)c1ccccc1O [Tizoxanide (TIZ), Tizoxanide] 40.2

* * *

- assay_summary: in vivo
- experimental_context: ICR, mouse, po, AUC0-∞, brain
measured_parameter: AUC(0-inf)
Please report the result as a number followed by the unit.

Could you please provide reported AUC(0-inf) for O=C(Nc1ncc([N+](=O)[O-])s1)c1ccccc1O [Tizoxanide (TIZ), Tizoxanide] ? Thanks! 9.06 ng·h/mL

* * *

- assay_summary: in vivo
- experimental_context: ICR, mouse, po, T1/2, plasma
measured_parameter: half-life (h)
Give just the number in h; leave the unit off.

Note half-life for the compound shown: O=C(Nc1ncc([N+](=O)[O-])s1)c1ccccc1O [Tizoxanide (TIZ), Tizoxanide] 3.8

* * *

- assay_summary: in vivo
- experimental_context: ICR, mouse, po, AUC0-∞, plasma
measured_parameter: AUC(0-inf) (ng·h/mL)
// note: answer is a bare numeric in ng·h/mL

Could you please provide reported AUC(0-inf) for O=C(Nc1ncc([N+](=O)[O-])s1)c1ccccc1O [Tizoxanide (TIZ), Tizoxanide] ? Thanks! 1000

* * *

- assay_summary: in vivo
- experimental_context: Sprague Dawley, rat, po, Tmax, plasma
measured_parameter: Tmax (min)
The figure you give is taken to be in min; do not add the unit.

// fetch Tmax given entry O=C(Nc1ncc([N+](=O)[O-])s1)c1ccccc1O [Tizoxanide (TIZ), Tizoxanide] 23.4

* * *

- assay_summary: in vivo
- experimental_context: Sprague Dawley, rat, po, T1/2, plasma
- Protocol: A pharmacokinetic experiment was performed to determine Tizoxanide (TIZ, active metabolite of Nitazoxanide, NTZ) in rat brain and plasma following oral administration to Sprague Dawley (SD) rat. […]
measured_parameter: half-life (h)
Express the result in h but write the number alone.

Assign half-life to the following record: O=C(Nc1ncc([N+](=O)[O-])s1)c1ccccc1O [Tizoxanide (TIZ), Tizoxanide] 3.86

* * *

- assay_summary: in vivo
- experimental_context: Sprague Dawley, rat, po, AUClast, brain
measured_parameter: AUC(0-t)

Identify the reported AUC(0-t) for the following entry. O=C(Nc1ncc([N+](=O)[O-])s1)c1ccccc1O [Tizoxanide (TIZ), Tizoxanide] 17.9 ng·h/mL

* * *

- assay_summary: in vivo
- experimental_context: Sprague Dawley, rat, po, T1/2, brain
measured_parameter: half-life (h)
Enter your answer as a number in h; do not include the unit.

For the molecule O=C(Nc1ncc([N+](=O)[O-])s1)c1ccccc1O [Tizoxanide (TIZ), Tizoxanide] , give its measured half-life value. 2.85

* * *

- assay_summary: in vivo
- experimental_context: Sprague Dawley, rat, po, AUC0-∞, plasma
measured_parameter: AUC(0-inf)
Lab note: write values as number then unit, every time.

For the molecule O=C(Nc1ncc([N+](=O)[O-])s1)c1ccccc1O [Tizoxanide (TIZ), Tizoxanide] , give its measured AUC(0-inf) value. 5420 ng·h/mL
